Test: AUC in Sprague-Dawley rat at 1 mg/kg, iv
Type: ADME, organism-based
Parameters: dose 1 mg/kg, route intravenous
Conditions: plasma
Value kind: AUC (ng·h/mL)

{"columns": ["Smiles notation", "Assay value"],
 "data": [
  ["C[C@H](Cc1ccccc1)n1c(-c2ccccc2O)nc2ccnc(C(F)(F)F)c2c1=O", 518],
  ["C[C@H](Cc1ccc(F)c(F)c1)n1c(-c2ncccc2O)nc2ccnc(C(F)(F)F)c2c1=O", 364],
  ["O=c1c2c(C(F)(F)F)nccc2nc(-c2ncccc2O)n1CCC1CCCCC1", 490],
  ["C[C@H](Cc1ccccc1)n1c(-c2ncccc2Cl)nc2ccnc(C(F)(F)F)c2c1=O", 810],
  ["C[C@H](Cc1ccccc1)n1c(-c2ncccc2C(F)(F)F)nc2ccnc(C(F)(F)F)c2c1=O", 1200],
  ["C[C@H](Cc1ccccc1)n1c(-c2cccc(F)c2O)nc2ccnc(C(F)(F)F)c2c1=O", 528]
]}

----------
Assay: Cmax in Sprague-Dawley rat at 10 mg/kg, po
Format: ADME, organism-based
Design: dose 10 mg/kg, route oral
Details: in vivo

{"columns": ["Smiles notation", "Cmax"],
 "data": [
  ["C[C@H](Cc1ccccc1)n1c(-c2ncccc2C(F)(F)F)nc2ccnc(C(F)(F)F)c2c1=O", "450 ng/mL"],
  ["C[C@H](Cc1ccccc1)n1c(-c2ccccc2O)nc2ccnc(C(F)(F)F)c2c1=O", "350 ng/mL"],
  ["C[C@H](Cc1ccc(F)c(F)c1)n1c(-c2ncccc2O)nc2ccnc(C(F)(F)F)c2c1=O", "165 ng/mL"]
]}

----------
Here the recorded IC50 is given for each entry.
Experiment: Antagonist activity at human calcium receptor expressed in HEK293 cells assessed as inhibition of extracellular calcium-induced release of intracellular calcium strores into cytosol by FLIPR assay
Assay type: functional, cell-based
Value kind: IC50 (nM)

{"columns": ["Smiles notation", "Value kind", "Uom", "Assay value"],
 "data": [
  ["C[C@H](Cc1ccccc1)n1c(-c2ccccc2Cl)nc2ccnc(C(F)(F)F)c2c1=O", "IC50", "nM", 152],
  ["C[C@H](Cc1ccccc1)n1c(-c2cscn2)nc2ccnc(C(F)(F)F)c2c1=O", "IC50", "nM", 216],
  ["O=c1c2c(C(F)(F)F)nccc2nc(-c2ncccc2O)n1CCC1CCCCC1", "IC50", "nM", 36],
  ["O=c1c2c(C(F)(F)F)nccc2nc(-c2ccccc2O)n1CCc1ccccc1F", "IC50", "nM", 132],
  ["C[C@H](Cc1ccccc1)n1c(-c2ncccc2O)nc2ccnc(C(F)(F)F)c2c1=O", "IC50", "nM", 22],
  ["COc1ccccc1CCn1c(-c2ncccc2O)nc2ccnc(C(F)(F)F)c2c1=O", "IC50", "nM", 76],
  ["C[C@H](Cc1ccccc1)n1c(-c2ncccc2C(F)(F)F)nc2ccnc(C(F)(F)F)c2c1=O", "IC50", "nM", 64],
  ["C[C@H](Cc1ccccc1)n1c(-c2ccccc2O)nc2ccnc(C(F)(F)F)c2c1=O", "IC50", "nM", 41],
  ["C[C@@H](Cc1ccccc1)n1c(-c2ccccc2O)nc2ccnc(C(F)(F)F)c2c1=O", "IC50", "nM", 158],
  ["O=c1c2c(C(F)(F)F)nccc2nc(-c2ccccc2O)n1CCc1ccccc1", "IC50", "nM", 50],
  ["O=c1c2c(C(F)(F)F)nccc2nc(-c2ccccc2Cl)n1CCc1ccccc1", "IC50", "nM", 1070],
  ["O=c1c2c(Cl)nccc2nc(-c2ccccc2O)n1CCc1ccccc1", "IC50", "nM", 106],
  ["C[C@H](Cc1ccccc1)n1c(-c2ncccc2Cl)nc2ccnc(C(F)(F)F)c2c1=O", "IC50", "nM", 79],
  ["Cc1cccnc1-c1nc2ccnc(C(F)(F)F)c2c(=O)n1[C@H](C)Cc1ccccc1", "IC50", "nM", 226],
  ["O=c1c2c(N3CCCC3)nccc2nc(-c2ccccc2O)n1CCc1ccccc1", "IC50", "nM", 5320],
  ["CC(=O)Nc1cccnc1-c1nc2ccnc(C(F)(F)F)c2c(=O)n1[C@H](C)Cc1ccccc1", "IC50", "nM", 19],
  ["O=c1c2c(OC3CCC3)nccc2nc(-c2ccccc2O)n1CCc1ccccc1", "IC50", "nM", 435],
  ["CC(C)Oc1nccc2nc(-c3ccccc3O)n(CCc3ccccc3)c(=O)c12", "IC50", "nM", 224],
  ["C[C@H](Cc1ccccc1)n1c(-c2cccc(F)c2O)nc2ccnc(C(F)(F)F)c2c1=O", "IC50", "nM", 25],
  ["Cc1nccc2nc(-c3ccccc3O)n(CCc3ccccc3)c(=O)c12", "IC50", "nM", 2990]
]}

----------
Here the recorded pIC50 is given for each entry.
Assay: Antagonist activity at human calcium receptor expressed in HEK293 cells assessed as inhibition of extracellular calcium-induced release of intracellular calcium strores into cytosol by FLIPR assay
Format: functional, cell-based
pIC50: −log10 of the molar value.

{"columns": ["Smiles notation", "pIC50"],
 "data": [
  ["C[C@H](Cc1ccc(F)c(F)c1)n1c(-c2ncccc2O)nc2ccnc(C(F)(F)F)c2c1=O", 8.10],
  ["O=c1c2c(C(F)(F)F)nccc2nc(-c2ncccc2O)n1CCc1ccccc1F", 6.82],
  ["O=c1c2c(C(F)(F)F)nccc2nc(-c2cccc(F)c2O)n1CCc1ccccc1", 6.21],
  ["O=c1c2c(C(F)(F)F)nccc2nc(-c2cscn2)n1CCc1ccccc1", 6.18]
]}

----------
Assay: Terminal half life in Sprague-Dawley rat at 1 mg/kg, iv
Type: ADME, organism-based
Design: dose 1 mg/kg, route intravenous
Conditions: Sprague-Dawley, in vivo, read-out: beta t1/2 (converted)

{"columns": ["Smiles notation", "Uom", "half-life"],
 "data": [
  ["C[C@H](Cc1ccc(F)c(F)c1)n1c(-c2ncccc2O)nc2ccnc(C(F)(F)F)c2c1=O", "h", 3.9],
  ["C[C@H](Cc1ccccc1)n1c(-c2cccc(F)c2O)nc2ccnc(C(F)(F)F)c2c1=O", "h", 1.53],
  ["C[C@H](Cc1ccccc1)n1c(-c2ccccc2O)nc2ccnc(C(F)(F)F)c2c1=O", "h", 0.6],
  ["O=c1c2c(C(F)(F)F)nccc2nc(-c2ncccc2O)n1CCC1CCCCC1", "h", 0.62]
]}

----------
Experiment: Cmax in Sprague-Dawley rat at 1 mg/kg, iv
Type: ADME, organism-based
Set-up: dose 1 mg/kg, route intravenous
Conditions: in vivo

{"columns": ["Smiles notation", "Uom", "Cmax"],
 "data": [
  ["C[C@H](Cc1ccccc1)n1c(-c2ncccc2C(F)(F)F)nc2ccnc(C(F)(F)F)c2c1=O", "ng/mL", 100],
  ["C[C@H](Cc1ccccc1)n1c(-c2ccccc2O)nc2ccnc(C(F)(F)F)c2c1=O", "ng/mL", 125],
  ["C[C@H](Cc1ccc(F)c(F)c1)n1c(-c2ncccc2O)nc2ccnc(C(F)(F)F)c2c1=O", "ng/mL", 133]
]}

----------
Test: Plasma clearance in Sprague-Dawley rat at 1 mg/kg, iv
Type: ADME, organism-based
Parameters: dose 1 mg/kg, route intravenous

{"columns": ["Smiles notation", "Uom", "clearance"],
 "data": [
  ["C[C@H](Cc1ccccc1)n1c(-c2ccccc2O)nc2ccnc(C(F)(F)F)c2c1=O", "mL/min/kg", 32.2],
  ["O=c1c2c(C(F)(F)F)nccc2nc(-c2ncccc2O)n1CCC1CCCCC1", "mL/min/kg", 35.9],
  ["C[C@H](Cc1ccccc1)n1c(-c2cccc(F)c2O)nc2ccnc(C(F)(F)F)c2c1=O", "mL/min/kg", 31.6],
  ["C[C@H](Cc1ccc(F)c(F)c1)n1c(-c2ncccc2O)nc2ccnc(C(F)(F)F)c2c1=O", "mL/min/kg", 46.5]
]}

----------
Experiment: Plasma clearance in 1-aminobenzotriazole led P450 inactivator pretreated Sprague-Dawley rat at 1 mg/kg, iv
Format: ADME, organism-based
Set-up: dose 1 mg/kg, route intravenous

{"columns": ["Smiles notation", "Uom", "clearance"],
 "data": [
  ["C[C@H](Cc1ccccc1)n1c(-c2ccccc2O)nc2ccnc(C(F)(F)F)c2c1=O", "mL/min/kg", 7.8]
]}

----------
Test: Half life in human
Assay type: ADME, organism-based
Conditions: in vivo

{"columns": ["Smiles notation", "half-life [h]"],
 "data": [
  ["CC(C)(Cc1ccc2ccccc2c1)NC[C@@H](O)COc1cccc(Cl)c1C#N", 8]
]}

----------
Here the recorded Vd is given for each entry.
Experiment: Volume of distribution at steady state in Sprague-Dawley rat at 1 mg/kg, iv
Type: ADME, organism-based
Set-up: dose 1 mg/kg, route intravenous
Details: Sprague-Dawley, in vivo, read-out: Vdss

{"columns": ["Smiles notation", "Vd [L/kg]"],
 "data": [
  ["C[C@H](Cc1ccc(F)c(F)c1)n1c(-c2ncccc2O)nc2ccnc(C(F)(F)F)c2c1=O", 8.6],
  ["C[C@H](Cc1ccccc1)n1c(-c2cccc(F)c2O)nc2ccnc(C(F)(F)F)c2c1=O", 3.6],
  ["O=c1c2c(C(F)(F)F)nccc2nc(-c2ncccc2O)n1CCC1CCCCC1", 3.2],
  ["C[C@H](Cc1ccccc1)n1c(-c2ccccc2O)nc2ccnc(C(F)(F)F)c2c1=O", 1.4]
]}

Each recorded value in this set is attributed to ChEMBL document CHEMBL1153504.
